Read-out: Human Leukocyte Antigen - DR isotype (HLADR), HLA-DRA (gene 3122)
Assay: BSK_3C_HLADR: BioMAP Diversity Plus: 3C Assay for Human Leukocyte Antigen - DR isotype (HLADR) Biomarker Activity (AID 2283019)
Conditions: primary human endothelial cells (HUVEC); actives raise or lower the signal
Calls of active or inactive are those of the source. The calls were made as follows: active = hit-call score of the fitted dose curve at least 0.9, where 1 is the maximum; inactive = score below 0.9.
Classes used: y (active), n (inactive)

# compound, label.value
records = [
    ("O=C1C(Cl)=C(Cl)C(=O)C(Cl)=C1Cl", "y"),
    ("Oc1cc(Cl)ccc1Cl", "n"),
    ("CC(C)COP(=O)(OCC(C)C)OCC(C)C", "n"),
    ("O=P1(NCCCl)OCCCN1CCCl (stereo unspecified)", "n"),
    ("CCc1cc(C)cc(CC)c1-c1c(OC(=O)C(C)(C)C)n2n(c1=O)CCOCC2", "y"),
    ("N#CCCCCC#N", "n"),
    ("CCC(C)c1cc([N+](=O)[O-])cc([N+](=O)[O-])c1OC(=O)C=C(C)C (stereo unspecified)", "y"),
    ("COc1ccc(CO)cc1", "n"),
    ("CCCC[N+](CCCC)(CCCC)CCCC", "n"),
    ("CC(C)CCCCCCCOP(=O)(Oc1ccccc1)Oc1ccccc1", "y"),
    ("CC(C)(C)C(=O)CCl", "y"),
    ("COC(C)(C)CCC[C@H](C)C/C=C/C(C)=C/C(=O)OC(C)C", "y"),
    ("CC(C)(c1cc(Cl)c(O)c(Cl)c1)c1cc(Cl)c(O)c(Cl)c1", "y"),
    ("O=[N+]([O-])c1ccc(Cl)cc1", "n"),
    ("O=S(=O)(c1ccccc1)c1ccccc1", "n"),
    ("CCCCCCCCCCCC#N", "y"),
    ("CCCOC(=O)c1ccccc1C(=O)OCCC", "y"),
    ("O=c1[nH]c(Cl)c(Cl)cc1Cl", "n"),
    ("O=[N+]([O-])C=Cc1ccccc1", "y"),
    ("Cc1ccc(OP(=O)(Oc2ccc(C)cc2)Oc2ccc(C)cc2)cc1 (tested in a mixture with another compound)", "y"),
    ("O=c1c2ccccc2c(=O)c2c1cc(Cl)c1[nH]c3c([nH]c12)c(Cl)cc1c(=O)c2ccccc2c(=O)c13", "n"),
]

====

Assay: TOX21_p53_BLA_p3_viability: Viability Assessment in the Tox21 HCT-116 p53 Agonism Beta-lactamase Assay, Phase 3 (AID 2283593);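 also: cells exposed to compound for 16 h before reading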
Results filed as inconclusive are left out. Active and inactive are the calls of the source. The calls were made as follows: active = hit-call score of the fitted dose curve at least 0.9, where 1 is the maximum; inconclusive = response in the unintended direction; inactive = score below 0.9.
Possible outcomes: active, inactive

# compound, label.value
data = [
    ("FC(F)(F)c1cccc(C2=CCN(CCc3ccc4ccccc4c3)CC2)c1", "inactive"),
    ("O=C(O)CC[N+](=O)[O-]", "inactive"),
    ("Cc1ccc(Cl)c(O)c1", "inactive"),
    ("CCC1(c2ccccc2)CCC(=O)NC1=O (stereo not given)", "inactive"),
    ("S=c1[nH]c2ccccc2[nH]1", "inactive"),
    ("CC[N+]1(C)CCCC(OC(=O)C(O)(c2ccccc2)c2ccccc2)C1 (stereo not given)", "inactive"),
    ("CC(Cl)C(=O)O (stereo not given)", "inactive"),
    ("COP(=O)(OC)Oc1ccc([N+](=O)[O-])cc1", "inactive"),
    ("O=C(Nc1ccccc1)N(Cc1ccc(Cl)cc1)C1CCCC1", "inactive"),
    ("O=CC(Br)(Br)Br", "inactive"),
    ("O=[N+]([O-])c1ccc(Cl)c(Cl)c1Cl", "inactive"),
    ("CC1CC(CC2CCC(N)C(C)C2)CCC1N (stereo not given)", "inactive"),
    ("N#Cc1cc(I)c(O)c(I)c1", "inactive"),
    ("CC[C@H](OC(C)=O)C(C[C@H](C)NC)(c1ccccc1)c1ccccc1", "inactive"),
    ("CN1CCN=C(c2ccccc2)c2cc(Cl)ccc21", "inactive"),
    ("CCCCc1c(C)nc(NCC)[nH]c1=O", "inactive"),
    ("CN1C(=O)[C@@H](NC(=O)c2cc3ccccc3[nH]2)N=C(c2ccccc2)c2ccccc21", "inactive"),
    ("C[C@]12CC[C@H]3[C@@H](CC=C4C[C@@H](O)CC[C@@]43C)[C@@H]1CC[C@@H]2O", "active"),
    ("CCCOC(=O)c1ccccc1C(=O)OCCC", "inactive"),
    ("C[C@]1(O)CC[C@H]2[C@@H]3CCC4=CC(=O)CC[C@]4(C)[C@@]3(F)[C@@H](O)C[C@@]21C", "inactive"),
    ("Oc1cc(Cl)c(Cl)c(Cl)c1Cl", "active"),
    ("COC1=CC=C2[C@H]3Cc4ccc(OC)c5c4[C@@]2(CCN3C)[C@H]1O5", "inactive"),
    ("CC1CCC(C(C)C)C(OC(=O)c2ccccc2N)C1 (stereo not given)", "active"),
    ("C=C1CC[C@@]2(O)[C@H]3Cc4ccc(O)c5c4[C@@]2(CCN3CC2CC2)[C@H]1O5", "inactive"),
    ("O=[N+]([O-])c1cc([N+](=O)[O-])c2ccccc2c1", "inactive"),
]
